System name: DLG2_1, Q15700
Assay remarks: holdup assay
Design: key: below the threshold = too weak to quantify, mostly under pKd 3.1 to 4
Experimental conditions: plain residues with an end cap or a label only (N-terminal biotin on a linker: ttds)
Parameter: pKd

Binder: PKTPPTDTSV [KIR3DL3, Q8N743]
Measured value: below the threshold
--
Binder: RSLEEEESQL [GRASP, Q7Z6J2]
Measured value: below the threshold
--
Binder: QSARYRDTEL [TJP2, Q9UDY2]
Measured value: below the threshold

Values compiled from paper PMC9482650.
